Some molecules, each annotated with its measured GI50.
tested on: BT-549; experiment: NCI tumour cell line growth inhibition, 48 h
Activity calls are given as the source filed them. Cut-off read from the data, not from the text of the source: active = GI50 up to about 1.1 µM and inactive = higher.

Reference set (2 entries):
C=C1C[C@H](O)[C@H](Br)C(C)(C)C12CCC(C)(Cl)C(Br)C2 (some centres undefined) = 7.53 µM (inactive)
O=C(O)c1ccccc1/C=N\N=C1NCCCCN1 = > 100 µM (inactive)

Which GI50 value is on record for `Cn1c2ccc3cc2c(=S)c2cc(ccc21)OCCOCCOCCOCCOCCO3` ?
> 10 µM (inactive)

Which GI50 value is on record for CC1(C)OC(=S)N(c2ccccc2)C12C=Cc1cc3ccccc3cc1O2 (centres undefined) ?
> 100 µM (inactive)

Which GI50 value is on record for CCCC[C@H]1C(=O)O[C@H](C)[C@H](NC(=O)c2cccc(NC=O)c2O)C(=O)O[C@@H](C)[C@@H]1OC(=O)CC(C)C [ANTIMYCIN A3] ?
1.68 µM (inactive)

Which GI50 value is on record for `O=C1CN(c2cccc(Cl)c2)C(=O)CN1NCNN1CC(=O)N(c2cccc(Cl)c2)CC1=O` ?
> 100 µM (inactive)

Which GI50 value is on record for Fc1cccc(C2SCC3=Nc4ccccc4CN32)c1 (centres undefined) ?
92.5 µM (inactive)

Which GI50 value is on record for `COc1ccc(OC)c(-c2nc3n(c2/C=C2/C(=O)Nc4ccccc42)CCS3)c1` ?
81.5 µM (inactive)

Which GI50 value is on record for `COc1cc(/C=C2\N=C(c3ccccc3)N(c3nc4ccc(Sc5ccccc5)cc4[nH]3)C2=O)ccc1O` ?
20 µM (inactive)

* * *

system: NCI-H522; experiment: NCI tumour cell line growth inhibition, 48 h
Calls of active or inactive are those of the source. Cut-off read from the data, not from the text of the source: active = GI50 up to about 1.1 µM and inactive = higher.
In this exercise, the only acceptable responses are y for active, n for inactive

Use the examples below as a reference point.
COc1ccc(-c2c(N)[n+]([O-])c3cc(C)c(C)cc3[n+]2[O-])cc1OC = n
C/C=C(\N=C=S)C(=O)OC1C(COC(C)=O)OC([C@]2(O)CC(=O)C(N)=C(C(=O)O)C2=O)C(O)C1OC1CC(OC)C(O)([C@@H](C)OC(=O)[C@@H](C)CC)C(C)O1 (stereo partly specified) = n
CC1C(=O)CC[C@@]2(C)C(=O)CCCC12O (stereo partly specified) = n
CCCCCOc1ccc(/C=N\c2ccc(CCc3ccc(/N=C/c4ccc(OCCCCC)cc4)cc3)cc2)cc1 = n
CCOC(=O)/C(=C\c1ccc(N(CCC#N)CCC#N)cc1C)NC(=O)/C=C/c1ccccc1 = n
OCC(O)C(O)C(O)c1nn(-c2ccc(F)cc2)c2nc3cc(Cl)c(Cl)cc3nc12 (stereo unspecified) = n

Called result for `CCCCNc1nc(SC)nc2[nH]cnc12`
n

Called result for `Cc1ccc2c(c1)SSSSS2`
n

Called result for `Nn1c(CCCCCCCCc2nnc(COc3ccc4ccccc4c3O)n2N)nnc1COc1ccc2ccccc2c1O`
n

* * *

test system: U-251; experiment: NCI tumour cell line growth inhibition, 48 h
Active and inactive are the calls of the source. Cut-off read from the data, not from the text of the source: active = GI50 up to about 1.1 µM and inactive = higher.
Some compounds, each annotated with its measured GI50.

Reference set (5 entries):
CCOC(=O)C(Cc1ccc(N(CCCl)CCCl)cc1)NC(=O)CCCN1C(=O)CN=C(c2ccccc2)c2cc(Cl)ccc21 (stereo not given) = 27.3 µM (inactive)
Fc1cccc(C2SCC3=Nc4ccccc4CN32)c1 (stereo not given) = 58.2 µM (inactive)
CC1(C)O[C@@H](CCl)C[C@H](C#N)O1 = > 100 µM (inactive)
c1cnc2c(c1)-n1cccc1C1(CCOCC1)NN2 = > 100 µM (inactive)
Cc1ccc(-c2nnc(SCC(=O)O)[nH]2)cc1 = > 100 µM (inactive)

Next item in the queue.
Which GI50 value is on record for `O=C(O)CCC(=O)Nc1ccc2c(c1)S(=O)(=O)N(CC(=O)O)C2=O` ?
> 100 µM (inactive)
